test: Solubility determination in oil (cottonseed oil, sesame oil); settings: Sesame oil; heating temp. 60 °C, obs. temp. 25 °C
What Approximate Solubility (mg/mL) in Excipient: Sesame oil was measured for each of the following?

Record excerpt, results attached:
INSERT INTO results (cpd_smiles, result) VALUES
  ('C=C1CC[C@@]2(O)C3Cc4ccc(OC(=O)OCCCCCCCCCC)c5c4[C@@]2(CCN3CC2CC2)[C@H]1O5', '>402 mg/mL'),
  ('CCCCCCCCOC(=O)Oc1ccc2c3c1O[C@H]1C(=O)CC[C@@]4(O)C(C2)N(CC2CC2)CC[C@]314', '>423.9 mg/mL'),
  ('CCCCC/C=C\C/C=C\CCCCCCCC(=O)Oc1ccc2c3c1O[C@H]1C(=O)CC[C@@]4(O)C(C2)N(CC2CC2)CC[C@]314', '>401.9 mg/mL');

For each entry beneath this line, provide reported Approximate Solubility (mg/mL) in Excipient: Sesame oil.
1. C=C1CC[C@@]2(O)C3Cc4ccc(OC(=O)OCCCCCCCCCCCCCC)c5c4[C@@]2(CCN3CC2CC2)[C@H]1O5
2. CCCCCCCCCCCCCCCCCC(=O)Oc1ccc2c3c1O[C@H]1C(=O)CC[C@@]4(O)C(C2)N(CC2CC2)CC[C@]314
3. C=C1CC[C@@]2(O)C3Cc4ccc(OC(=O)CCCCCCCCCCCCCCCCC)c5c4[C@@]2(CCN3CC2CC2)[C@H]1O5
4. C=C1CC[C@@]2(O)C3Cc4ccc(OC(=O)OCCCCCCCCCCCC)c5c4[C@@]2(CCN3CC2CC2)[C@H]1O5
5. C=C1CC[C@@]2(O)C3Cc4ccc(OC(=O)OCCCCCCCCCCCCCCCCCCCC)c5c4[C@@]2(CCN3CC2CC2)[C@H]1O5
6. C=C1CC[C@@]2(O)C3Cc4ccc(OC(=O)CCC5CCCC5)c5c4[C@@]2(CCN3CC2CC2)[C@H]1O5

1: >413.5 mg/mL; 2: <50 mg/mL; 3: <50 mg/mL; 4: >386 mg/mL; 5: <50.6 mg/mL; 6: 106 to 141 mg/mL
